- TESTED_ON: T1, formyl peptide receptor-like 1 (UniProt P25090 1-351, limits assumed)
- T1 sequence (looked up): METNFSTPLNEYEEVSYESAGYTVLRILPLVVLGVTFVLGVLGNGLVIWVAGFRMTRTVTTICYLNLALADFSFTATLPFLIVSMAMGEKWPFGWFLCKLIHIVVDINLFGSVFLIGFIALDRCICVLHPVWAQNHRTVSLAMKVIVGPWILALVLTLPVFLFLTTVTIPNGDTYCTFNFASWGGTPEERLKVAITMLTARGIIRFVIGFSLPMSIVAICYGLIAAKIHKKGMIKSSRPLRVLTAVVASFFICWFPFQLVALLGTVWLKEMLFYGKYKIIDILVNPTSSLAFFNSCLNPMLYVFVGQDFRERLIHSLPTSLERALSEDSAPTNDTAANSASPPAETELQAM
- ASSAY_TEXT: cell-based or functional assay
Where no end group is shown, it is not given here. [ ]: non-standard residue; d: D form.
OBSERVED_PROPERTY: EC50 of intracellular calcium increase in FPRL1-expressing RBL-2H3 cells (fura-2) (nM)
Could you give me the number in nM? Just the number is fine.

BINDER | RESULT_VALUE
WKYMVW-NH2 [Trp-Lys-Tyr-Met-Val-Trp-NH2] | 194

[in] Would you mind telling me what EC50 of intracellular calcium increase in FPRL1-expressing RBL-2H3 cells (fura-2) value was observed for WDYMV[dM]-NH2 (N-terminus assumed; SMILES CSCC[C@H](NC(=O)[C@H](Cc1ccc(O)cc1)NC(=O)[C@H](CC(=O)O)NC(=O)[C@@H](N)Cc1c[nH]c2ccccc12)C(=O)N[C@H](C(=O)N[C@H](CCSC)C(N)=O)C(C)C) [Trp-Asp-Tyr-Met-Val-D-Met-NH2] ?
[out] 14.3

[in] Would you mind telling me what EC50 of intracellular calcium increase in FPRL1-expressing RBL-2H3 cells (fura-2) value was observed for YMV[dM]-NH2 [Tyr-Met-Val-D-Met-NH2] ?
[out] 17.1

[in] Would you mind telling me what EC50 of intracellular calcium increase in FPRL1-expressing RBL-2H3 cells (fura-2) value was observed for WKEMV[dM]-NH2 (N-terminus assumed; SMILES CSCC[C@H](NC(=O)[C@H](CCC(=O)O)NC(=O)[C@H](CCCCN)NC(=O)[C@@H](N)Cc1c[nH]c2ccccc12)C(=O)N[C@H](C(=O)N[C@H](CCSC)C(N)=O)C(C)C) [Trp-Lys-Glu-Met-Val-D-Met-NH2] ?
[out] 28.3

[in] Would you mind telling me what EC50 of intracellular calcium increase in FPRL1-expressing RBL-2H3 cells (fura-2) value was observed for WKHMV[dM]-NH2 (N-terminus assumed; SMILES CSCC[C@H](NC(=O)[C@H](Cc1c[nH]cn1)NC(=O)[C@H](CCCCN)NC(=O)[C@@H](N)Cc1c[nH]c2ccccc12)C(=O)N[C@H](C(=O)N[C@H](CCSC)C(N)=O)C(C)C) [Trp-Lys-His-Met-Val-D-Met-NH2] ?
[out] 1.94
